system: human LSD1 (Homo sapiens, UniProt O60341)
pIC50: −log10 of the molar value. Structures can show the parent of a compound that is named as a salt.
result_type: pIC50

• O=C(O)CC1(N2CCC3(CC2)CC(N[C@@H]2C[C@H]2c2ccccc2)CO3)CNC1 (stereo partly shown) [Hydrochloride of the compound 32] = 5.93
• O=C(O)Cc1ccc(N2CCC3(CC2)CC(N[C@@H]2C[C@H]2c2ccccc2)CO3)cc1 (stereo partly shown) [Hydrochloride of the compound 12] = 5.86
• O=C(O)c1ccc(CN2CC3(CC(N[C@@H]4C[C@H]4c4ccccc4)CO3)C2)cc1 (stereo partly shown) [Hydrochloride of the compound 2] = 5.80
• O=C(O)c1ccc(CN2CC3(CC(N[C@@H]4C[C@H]4c4ccccc4)CCO3)C2)cc1 (stereo partly shown) [Hydrochloride of the compound 4] = 6.03
• O=C(O)c1ccc(CN2CCC3(CC2)CC(N[C@@H]2C[C@H]2c2ccccc2)CO3)cn1 (stereo partly shown) [Hydrochloride of the compound 20] = 6.62
• O=C(O)c1ccc(CN2CCC3(CC2)CC(N[C@@H]2C[C@H]2c2ccccc2)CO3)nc1 (stereo partly shown) [Hydrochloride of the compound 14] = 6.93
• O=C(O)c1ccc(NC(=O)N2CCC3(CC2)CC(N[C@@H]2C[C@H]2c2ccccc2)CO3)cc1 (stereo partly shown) [Hydrochloride of the compound 1] = 5.77
• N#Cc1ccc(CN2CCC3(CC2)CC(N[C@@H]2C[C@H]2c2ccccc2)CO3)cc1 (stereo partly shown) [Hydrochloride of the compound 21] = 7.04
• O=C(O)c1ccc(CN2CCC3(CC2)CC(N[C@@H]2C[C@H]2c2ccccc2)CCO3)cc1 (stereo partly shown) [Hydrochloride of the compound 26] = 6.57
• O=C(O)c1ccc(OC(=O)N2CCC3(CC2)CC(N[C@@H]2C[C@H]2c2ccccc2)CO3)cc1 (stereo partly shown) [Hydrochloride of the compound 25] = 5.76
• O=C(O)c1ccc(CCN2CCC3(CC2)CC(N[C@@H]2C[C@H]2c2ccccc2)CO3)cc1 (stereo partly shown) [Hydrochloride of the compound 19] = 6.68
• O=C(O)[C@H]1CC[C@H](CN2CCC3(CC2)CC(N[C@@H]2C[C@H]2c2ccccc2)CO3)CC1 (stereo partly shown) [Hydrochloride of the compound 27] = 5.75
• O=C(O)c1cccc(CN2CCC3(CC2)CC(N[C@@H]2C[C@H]2c2ccccc2)CO3)c1 (stereo partly shown) [Hydrochloride of the compound 3] = 7.01

* * *

Tested on: HL60 cells
procedure_details: Antiproliferation activity on HL60 cells (CellTiter-Glo, 6 days)
Type: cell-based
conditions_used: Homo sapiens, HL-60, 144 h, incubated for 6 days
Counter-ions that a name gives are not always drawn.
result_type: IC50 (nM)

• O=C(O)C1(CN2CCC3(CC2)CC(N[C@@H]2C[C@H]2c2ccccc2)CO3)CCC1 (stereo partly shown) [Hydrochloride of the compound 30] = 337
• O=C(O)c1ccc(CN2CCC3(CC2)CC(N[C@@H]2C[C@H]2c2ccccc2)CO3)cc1 (stereo partly shown) [Hydrochloride of the compound 16] = 8.46
• NC1(C(=O)N2CCC3(CC2)CC(N[C@@H]2C[C@H]2c2ccccc2)CO3)CC1 (stereo partly shown) [Hydrochloride of the compound 34] = 1.92
• N#Cc1ccc(CN2CCC3(CC2)CC(N[C@@H]2C[C@H]2c2ccccc2)CO3)cc1 (stereo partly shown) [Hydrochloride of the compound 21] = 1.17

* * *

system: human LSD1 (Homo sapiens, UniProt O60341)
pIC50: −log10 of the molar value. Structures can show the parent of a compound that is named as a salt.
Binary call on pIC50: criterion met from 6 upward, criterion not met beneath that.

• O=C(O)c1ccc(CN2CCC3(CC2)CC(N[C@@H]2C[C@H]2c2ccccc2)CO3)cc1 (stereo partly drawn) [Hydrochloride of the compound 6] = criterion met
• COc1ccc(CN2CCC3(CC2)CC(N[C@@H]2C[C@H]2c2ccccc2)CO3)cc1 (stereo partly drawn) [Hydrochloride of the compound 8] = criterion met
• O=C(O)C1(CN2CCC3(CC2)CC(N[C@@H]2C[C@H]2c2ccccc2)CO3)CC1 (stereo partly drawn) [Hydrochloride of the compound 31] = criterion not met
• O=C(O)c1ccc(CN2CCC3(CC2)OCC3N[C@@H]2C[C@H]2c2ccccc2)cc1 (stereo partly drawn) [Hydrochloride of the compound 5] = criterion not met
• O=C(O)c1ccc(CN2CCC3(CC2)CC(N[C@@H]2C[C@H]2c2ccccc2)CO3)cc1 (stereo partly drawn) [Hydrochloride of the compound 16] = criterion met

* * *

procedure_details: In vivo pharmacokinetics in CD-1 mice
conditions_used: male CD-1 mice; study doses 1 mg/kg intravenous, 2 mg/kg oral; route not given; read-out: Max concentration Cmax
Structures can show the parent of a compound that is named as a salt.
result_type: Cmax

• O=C(O)c1ccc(CN2CCC3(CC2)CC(N[C@@H]2C[C@H]2c2ccccc2)CO3)cc1 (some centres unmarked) [Hydrochloride of the compound 15] = 919 nM
• O=C(O)c1ccc(CN2CCC3(CC2)CC(N[C@@H]2C[C@H]2c2ccccc2)CO3)cc1 (some centres unmarked) [Hydrochloride of the compound 16] = 860 nM

* * *

system: hERG potassium ion channel (Homo sapiens, UniProt Q12809)
Sequence (Q12809 whole entry): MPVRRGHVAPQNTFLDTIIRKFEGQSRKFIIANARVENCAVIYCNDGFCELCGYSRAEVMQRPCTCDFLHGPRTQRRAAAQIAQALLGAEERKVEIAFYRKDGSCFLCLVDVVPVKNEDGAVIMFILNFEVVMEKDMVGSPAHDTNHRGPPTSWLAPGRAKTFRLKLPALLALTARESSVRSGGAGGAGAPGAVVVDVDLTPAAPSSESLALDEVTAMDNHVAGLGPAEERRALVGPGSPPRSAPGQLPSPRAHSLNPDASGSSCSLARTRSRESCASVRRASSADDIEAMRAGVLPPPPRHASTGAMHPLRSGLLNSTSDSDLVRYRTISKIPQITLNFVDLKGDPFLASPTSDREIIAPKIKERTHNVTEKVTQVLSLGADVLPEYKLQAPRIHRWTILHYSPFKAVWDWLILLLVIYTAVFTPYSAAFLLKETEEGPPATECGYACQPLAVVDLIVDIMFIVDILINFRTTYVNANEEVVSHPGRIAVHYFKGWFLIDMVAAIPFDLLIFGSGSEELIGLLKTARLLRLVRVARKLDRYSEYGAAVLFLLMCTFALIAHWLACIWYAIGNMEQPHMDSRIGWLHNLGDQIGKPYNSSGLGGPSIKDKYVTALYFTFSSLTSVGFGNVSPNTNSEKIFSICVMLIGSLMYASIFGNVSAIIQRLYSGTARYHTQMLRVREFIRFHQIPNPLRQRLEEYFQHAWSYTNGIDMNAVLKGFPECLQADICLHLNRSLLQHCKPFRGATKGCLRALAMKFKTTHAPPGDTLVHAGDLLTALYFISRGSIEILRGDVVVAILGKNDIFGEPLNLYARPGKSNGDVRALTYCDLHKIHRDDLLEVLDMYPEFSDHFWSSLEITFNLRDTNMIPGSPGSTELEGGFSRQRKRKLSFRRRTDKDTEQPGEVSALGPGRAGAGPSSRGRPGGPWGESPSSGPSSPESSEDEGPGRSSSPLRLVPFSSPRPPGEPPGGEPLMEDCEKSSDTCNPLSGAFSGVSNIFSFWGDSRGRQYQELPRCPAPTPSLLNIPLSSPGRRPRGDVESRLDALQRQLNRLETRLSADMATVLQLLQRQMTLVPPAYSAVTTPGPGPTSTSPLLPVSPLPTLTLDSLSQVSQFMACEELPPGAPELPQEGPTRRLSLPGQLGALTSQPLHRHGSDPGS
procedure_details: Inhibition test for hERG potassium ion channel (automatic patch-clamp, CHO-hERG cells)
conditions_used: Qpatch, highest test concentration 40 μM
Procedure: Experimental purpose: to detect the effect of the embodiments to be tested on the potassium ion channel of hERG by using the fully automatic patch-clamp method. […] The single-cell high-impedance sealing and the whole-cell mode formation process were all automatically completed by the Qpatch instrument of the Shanghai Institute of Materia Medica, Chinese Academy of Sciences. […] The data were recorded for 2 minutes, then extracellular fluid was administrated, and then the data were recorded for 5 minutes. […]
pIC50: −log10 of the molar value. Counter-ions that a name gives are not always drawn.
result_type: pIC50

• O=C(O)c1ccc(CN2CCC3(CC2)CC(N[C@@H]2C[C@H]2c2ccccc2)CO3)cc1 (stereo partly shown) [Hydrochloride of the compound 6] = < 4.40

* * *

Listing of entries alongside the reported pIC50.
system: human LSD1 (Homo sapiens)
pIC50: −log10 of the molar value. Counter-ions that a name gives are not always drawn.
result_type: pIC50

- O=C(O)C1(CN2CCC3(CC2)CC(N[C@@H]2C[C@H]2c2ccccc2)CO3)CCC1 (stereo partly drawn) [Hydrochloride of the compound 30]: 5.94
- c1ccc([C@@H]2C[C@H]2NC2COC3(CCN(CCc4nn[nH]n4)CC3)C2)cc1 (stereo partly drawn) [Hydrochloride of the compound 33]: 7.32
- Fc1ccc(CN2CCC3(CC2)CC(N[C@@H]2C[C@H]2c2ccccc2)CO3)cc1 (stereo partly drawn) [Hydrochloride of the compound 9]: 7.42
- NC1(C(=O)N2CCC3(CC2)CC(N[C@@H]2C[C@H]2c2ccccc2)CO3)CC1 (stereo partly drawn) [Hydrochloride of the compound 34]: 7.42
- O=C(O)c1ccc2cc(CN3CCC4(CC3)CC(N[C@@H]3C[C@H]3c3ccccc3)CO4)ccc2c1 (stereo partly drawn) [Hydrochloride of the compound 17]: 7.15
- O=C(O)c1ccccc1CN1CCC2(CC1)CC(N[C@@H]1C[C@H]1c1ccccc1)CO2 (stereo partly drawn) [Hydrochloride of the compound 7]: 7.35
- O=C(O)c1cnc(CN2CCC3(CC2)CC(N[C@@H]2C[C@H]2c2ccccc2)CO3)cn1 (stereo partly drawn) [Hydrochloride of the compound 18]: 7.03
- O=C(O)c1ccc(C(=O)N2CCC3(CC2)CC(N[C@@H]2C[C@H]2c2ccccc2)CO3)cc1 (stereo partly drawn) [Hydrochloride of the compound 22]: 6.04
- O=C(O)C1CC(CN2CCC3(CC2)CC(N[C@@H]2C[C@H]2c2ccccc2)CO3)C1 (stereo partly drawn) [Hydrochloride of the compound 29]: 5.78

* * *

system: human LSD1 (Homo sapiens, UniProt O60341)
pIC50: −log10 of the molar value. Counter-ions that a name gives are not always drawn.
pIC50 below 7 gives Not fulfilled; pIC50 at or above it gives Fulfilled.

- O=C(O)c1ccc(N2CCC3(CC2)CC(N[C@@H]2C[C@H]2c2ccccc2)CO3)cc1 (stereo partly drawn) [Hydrochloride of the compound 11]: Not fulfilled
- Clc1ccc(CN2CCC3(CC2)CC(N[C@@H]2C[C@H]2c2ccccc2)CO3)cc1 (stereo partly drawn) [Hydrochloride of the compound 13]: Fulfilled
- O=C(O)c1ccc(CN2CCC3(CC2)CC(N[C@@H]2C[C@H]2c2ccccc2)CO3)cc1 (stereo partly drawn) [Hydrochloride of the compound 15]: Not fulfilled
- c1ccc([C@@H]2C[C@H]2NC2COC3(CCN(Cc4ccc(-c5nn[nH]n5)cc4)CC3)C2)cc1 (stereo partly drawn) [Hydrochloride of the compound 24]: Fulfilled

* * *

procedure_details: In vivo pharmacokinetics in CD-1 mice
conditions_used: male, CD-1, mouse, plasma, iv, 1 mg/kg, male CD-1 mice; study doses 1 mg/kg intravenous, 2 mg/kg oral; read-out: Volumes of distribution Vdss
Counter-ions that a name gives are not always drawn.
Vd values by entry
result_type: Vd (L/kg)

* O=C(O)c1ccc(CN2CCC3(CC2)CC(N[C@@H]2C[C@H]2c2ccccc2)CO3)cc1 (some centres unmarked) [Hydrochloride of the compound 6] | 1.19
* O=C(O)c1ccc(CN2CCC3(CC2)CC(N[C@@H]2C[C@H]2c2ccccc2)CO3)cn1 (some centres unmarked) [Hydrochloride of the compound 20] | 0.752
* NC(=O)c1ccc(CN2CCC3(CC2)CC(N[C@@H]2C[C@H]2c2ccccc2)CO3)cc1 (some centres unmarked) [Hydrochloride of the compound 23] | 18.6
* O=C(O)c1ccc(CN2CCC3(CC2)CC(N[C@@H]2C[C@H]2c2ccccc2)CO3)nc1 (some centres unmarked) [Hydrochloride of the compound 14] | 0.551
* NC1(C(=O)N2CCC3(CC2)CC(N[C@@H]2C[C@H]2c2ccccc2)CO3)CC1 (some centres unmarked) [Hydrochloride of the compound 34] | 2.09

Provenance of the data: patent US11649245B2
